- run_description: log P by HPLC on reversed-phase column (C18), EEC directive 79/831 Annex V.A8
- Assay type: physicochemical
- run_parameters: HPLC, acidic range pH 2.7, 43° C.
The entries below come with measured log p values attached.
Reply with the value as a number alone.

Task: Requested field: log p. Item: CCn1c(C(=O)NC(c2ccc(Cl)c(C(F)(F)F)c2)C(F)(F)F)cc2cc(C(=O)NC3CC3)c(Cl)nc21 (centres unmarked)
Result: 4.06

Task: Further, for CCn1c(C(=O)NC(c2ccc(F)c(Cl)c2)C(F)(F)F)cc2cc(C(=O)NC3CC3)c(C)nc21 (centres unmarked) ?
Result: 3.39

Task: Next record, please: CCn1c(C(=O)NC(c2cc(Cl)c(F)c(Cl)c2)C(F)(F)F)cc2cc(C(=O)NC3CC3)c(C)nc21 (centres unmarked)
Result: 4.00

Task: For CCn1c(C(=O)NC(c2ccc(Cl)c(C(F)(F)F)c2)C(F)(F)F)cc2cc(C(=O)NC3(C(N)=S)CC3)c(Cl)nc21 (centres unmarked) then?
Result: 3.90

Task: Param item: CCn1c(C(=O)NC(c2cccc(C(F)(F)F)c2)C(F)(F)F)cc2cc(C(=O)NC(C)C)c(C)nc21 (centres unmarked)
Result: 3.74

Task: Further, for CCn1c(C(=O)NC(c2cccc(C(F)(F)F)c2)C(F)(F)F)cc2cc(C(=O)NC3(C#N)CC3)c(C)nc21 (centres unmarked) ?
Result: 3.53

----------
- run_description: log P by HPLC on reversed-phase column (C18), EEC directive 79/831 Annex V.A8
- Assay type: physicochemical
- run_parameters: HPLC, acidic range pH 2.7, 43° C.
Recorded log p by entry
Form field (numeric): enter value without unit.

# molecule, log p
rows = [
    ("CCn1c(C(=O)NC(c2cc(Cl)c(F)c(Cl)c2)C(F)(F)F)cc2cc(C(=O)NC3(C#N)CC3)c(Cl)nc21 (stereo not shown)", 4.11),
    ("C#CCn1c(C(=O)NC(c2cc(Cl)c(F)c(Cl)c2)C(F)(F)F)cc2cc(C(=O)NC3CC3)c(C(F)(F)F)nc21 (stereo not shown)", 4.04),
    ("CCn1c(C(=O)NC(c2cc(Cl)c(F)c(Cl)c2)C(F)(F)F)cc2cc(C(=O)NC3(C(N)=S)CC3)c(Cl)nc21 (stereo not shown)", 3.97),
]

Attention now shifts to the item below.
Task: I have this molecule here, CCn1c(C(=O)NC(c2cccc(C(F)(F)F)c2)C(F)(F)F)cc2cc(C(=O)NCC(F)(F)F)c(Cl)nc21 (stereo not shown) , and I need its recorded log p.
Result: 4.08

----------
- run_description: log P by HPLC on reversed-phase column (C18), EEC directive 79/831 Annex V.A8
- Assay type: physicochemical
- run_parameters: HPLC, acidic range pH 2.7, 43° C.
Property: log p; scope: individual molecules
Could you respond with only the numeric value?

Consider the following illustrative entries.
# molecule, numeric_result
data = [
    ("CCn1c(C(=O)NC(c2ccc(Cl)c(Cl)c2)C(F)(F)F)cc2cc(C(=O)NC3(C#N)CC3)c(Cl)nc21 (centres unmarked)", 3.94),
    ("CCn1c(C(=O)NC(c2cc(Cl)c(F)c(Cl)c2)C(F)(F)F)cc2cc(C(=O)NC(C)C)c(Cl)nc21 (centres unmarked)", 4.44),
    ("CCn1c(C(=O)NC(c2cc(Cl)c(F)c(Cl)c2F)C(F)(F)F)cc2cc(C(=O)NC3(C(N)=S)CC3)c(Cl)nc21 (centres unmarked)", 4.20),
    ("C#CCn1c(C(=O)NC(c2cccc(C(F)(F)F)c2)C(F)(F)F)cc2cc(C(=O)NC3(C#N)CC3)c(C)nc21 (centres unmarked)", 3.34),
    ("CCn1c(C(=O)NC(c2cccc(C(F)(F)F)c2)C(F)(F)F)cc2cc(C(=O)NC(C)CF)c(Cl)nc21 (centres unmarked)", 3.83),
]

Task: Can you look up the measured log p of CCn1c(C(=O)NC(c2cccc(C(F)(F)F)c2)C(F)(F)F)cc2cc(C(=O)NC3(C#N)CC3)c(C(F)(F)F)nc21 (centres unmarked) for me?
Result: 3.93

Task: Proceed to CCn1c(C(=O)NC(c2ccc(F)c(Cl)c2)C(F)(F)F)cc2cc(C(=O)NC(C)C)c(Cl)nc21 (centres unmarked)
Result: 3.88

Task: Please do the same for CCn1c(C(=O)NC(c2cccc(C(F)(F)F)c2)C(F)(F)F)cc2cc(C(=O)NCC(F)F)c(Cl)nc21 (centres unmarked) as well.
Result: 3.79

----------
- run_description: log P by HPLC on reversed-phase column (C18), EEC directive 79/831 Annex V.A8
- Assay type: physicochemical
- run_parameters: HPLC, acidic range pH 2.7, 43° C.
Hi! Could you tag entries with log p below 4 as Criterion met, and those at or above as Criterion not met? Much appreciated.

Answered cases to consult:
# molecule, answer_label
rows = [
    ("C#CCn1c(C(=O)NC(c2cccc(C(F)(F)F)c2)C(F)(F)F)cc2cc(C(=O)Nc3ccc(Cl)cn3)c(Cl)nc21 (centres unmarked) [Compound 61]", "Criterion not met"),
    ("CCn1c(C(=O)NC(c2cc(Cl)c(F)c(Cl)c2F)C(F)(F)F)cc2cc(C(=O)NC3(C(N)=S)CC3)c(C(F)(F)F)nc21 (centres unmarked) [Compound 82]", "Criterion not met"),
    ("CCn1c(C(=O)NC(c2ccc(F)c(Cl)c2)C(F)(F)F)cc2cc(C(=O)NC3CC3)c(Cl)nc21 (centres unmarked) [Compound 16]", "Criterion met"),
    ("CCn1c(C(=O)NC(c2ccc(Cl)c(Cl)c2)C(F)(F)F)cc2cc(C(=O)NC3CCC3)c(Cl)nc21 (centres unmarked) [Compound 54]", "Criterion not met"),
    ("CCn1c(C(=O)NC(c2cccc(C(F)(F)F)c2)C(F)(F)F)cc2cc(C(=O)NC)c(Cl)nc21 (centres unmarked) [Compound 51]", "Criterion met"),
    ("CCn1c(C(=O)NC(c2cc(Cl)c(F)c(Cl)c2F)C(F)(F)F)cc2cc(C(=O)NC3CC3)c(C)nc21 (centres unmarked) [Compound 71]", "Criterion not met"),
]

Shift focus to the following entry.
Task: log p strictly < 4 for this molecule? CCNC(=O)c1cc2cc(C(=O)NC(c3cccc(C(F)(F)F)c3)C(F)(F)F)n(CC)c2nc1Cl (centres unmarked) [Compound 52]
Result: Criterion met

----------
- run_description: log P by HPLC on reversed-phase column (C18), EEC directive 79/831 Annex V.A8
- Type: physicochemical
- run_parameters: HPLC, acidic range pH 2.7, 43° C.
Listed here are compounds together with their documented log p.
Write no unit; give the number alone.

Worked cases, answers included:
# compound, log p
data = [
    ("CCn1c(C(=O)NC(c2cccc(C(F)(F)F)c2)C(F)(F)F)cc2cc(C(=O)NC3CC3)c(Cl)nc21 (stereo not drawn) [Compound 12]", 3.70),
    ("CCn1c(C(=O)NC(c2cccc(C(F)(F)F)c2)C(F)(F)F)cc2cc(C(=O)NCC(=O)OC)c(Cl)nc21 (stereo not drawn) [Compound 44]", 3.58),
    ("CCn1c(C(=O)NC(c2cccc(C(F)(F)F)c2)C(F)(F)F)cc2cc(C(=O)NC3CC3)c(C(F)(F)F)nc21 (stereo not drawn) [Compound 73]", 4.00),
    ("CCn1c(C(=O)NC(c2cccc(C(F)(F)F)c2)C(F)(F)F)cc2cc(C(=O)NC(CF)CF)c(Cl)nc21 (stereo not drawn) [Compound 35]", 3.83),
    ("CCn1c(C(=O)NC(c2ccc(F)c(Cl)c2)C(F)(F)F)cc2cc(C(=O)NC3CCC3)c(Cl)nc21 (stereo not drawn) [Compound 49]", 4.11),
]

Task: Any idea what its log p is? The compound is CCn1c(C(=O)NC(c2ccc(F)c(C(F)(F)F)c2)C(F)(F)F)cc2cc(C(=O)NCc3ccccn3)c(Cl)nc21 (stereo not drawn) [Compound 55]
Result: 3.32
